The reported numbers originate from PubChem BioAssay.

# PROCEDURE DETAILS: HepG2 cell viability effects, profiling panel, calcein-AM fluorescence, 48 h, basal (AID 1164); also: test concentration not given here
# CONDITION CONTEXT: higher = more signal
Group membership follows z-score per the scheme lower range (below -0.8), middle range (-0.8 to below -0.2), upper range (-0.2 or more)

Use these answered entries as a reference point.
STRUCTURE STRING	CLASS ASSIGNMENT
O=C(NCc1ccccc1)[C@@]1(CCS(=O)(=O)c2ccccc2)COC(c2ccc(OCCCO)cc2)=N1	upper range
O=C1O[C@@H](c2ccccc2)[C@@H](c2ccccc2)N2[C@@H](c3ccc(O)cc3)[C@]3(C(=O)Nc4ccc(C#CC5(O)CCCCCC5)cc43)[C@@H](C(=O)Nc3nc4ccccc4s3)[C@H]12	upper range
COc1ccc([Si](C)(C)[C@@H]2[C@@H](CC(=O)N(CCO)Cc3ccccc3)O[C@]3(C(=O)N(Cc4cccc(N5CCC5=O)c4)c4ccccc43)[C@H]2C)cc1	lower range
C#CCCCON=C1C[C@@H](O)[C@@H](O)[C@@H]2[C@@H]3C(=O)N(Cc4ccc5c(c4)OCO5)C(=O)[C@@H]3CC[C@@H]12	middle range
CN(C)C(=O)[C@@]1(Cc2ccccc2N=[N+]=[N-])N=C(c2ccc(OCCCO)cc2)O[C@H]1c1ccccc1CN=[N+]=[N-]	lower range

Attention now shifts to the item below.
[in] Assign a bin to O=C1O[C@H](c2ccccc2)[C@H](c2ccccc2)N2[C@H]1[C@@H](C(=O)Nc1nc3ccccc3s1)[C@]1(C(=O)Nc3ccc(C#CC4=CCCCC4)cc31)[C@H]2c1ccccc1OCCO
[out] middle range
